Data provenance is paper PMC9516332.

Reported IC50 values for the following compounds.
Tested on: 134 cancer cell lines
Assay: Cell viability assay (ATPlite, 72 hours), IC50 on cancer cell line panel
Conditions: Homo sapiens, SUP-T1, read-out: IC50 in cell proliferation assay, cell line SUP-T1
RESULT TYPE: IC50 (µM)

[
  {
    "COMPOUND": "CO[C@]1(C(=O)N[C@@H](C)c2ccc(-n3cc(F)cn3)nc2)CC[C@H](c2nc(C)cc(Nc3cc(C)[nH]n3)n2)CC1 [pralsetinib]",
    "RESULT TYPE": "IC50",
    "RELATION OPERATOR": "=",
    "ENDPOINT VALUE": 30.7
  },
  {
    "COMPOUND": "Cc1cc(Nc2ncnc3ccc(NC4=NC(C)(C)CO4)cc23)ccc1Oc1ccn2ncnc2c1 [tucatinib]",
    "RESULT TYPE": "IC50",
    "RELATION OPERATOR": ">",
    "ENDPOINT VALUE": 31.6
  },
  {
    "COMPOUND": "Cn1cnc2c(F)c(Nc3ccc(Br)cc3F)c(C(=O)NOCCO)cc21 [binimetinib]",
    "RESULT TYPE": "IC50",
    "RELATION OPERATOR": ">",
    "ENDPOINT VALUE": 31.6
  },
  {
    "COMPOUND": "COC(=O)N[C@@H](C)CNc1nccc(-c2cn(C(C)C)nc2-c2cc(Cl)cc(NS(C)(=O)=O)c2F)n1 [encorafenib]",
    "RESULT TYPE": "IC50",
    "RELATION OPERATOR": ">",
    "ENDPOINT VALUE": 31.6
  },
  {
    "COMPOUND": "CN1CCN(c2ccc(C(=O)Nc3n[nH]c4ccc(Cc5cc(F)cc(F)c5)cc34)c(NC3CCOCC3)c2)CC1 [entrectinib]",
    "RESULT TYPE": "IC50",
    "RELATION OPERATOR": "=",
    "ENDPOINT VALUE": 11
  },
  {
    "COMPOUND": "C[C@H](Nc1ncnc2nc[nH]c12)c1cc2cccc(Cl)c2c(=O)n1-c1ccccc1 [duvelisib]",
    "RESULT TYPE": "IC50",
    "RELATION OPERATOR": "=",
    "ENDPOINT VALUE": 29.3
  },
  {
    "COMPOUND": "Cn1cnc2c(F)c(Nc3ccc(Br)cc3Cl)c(C(=O)NOCCO)cc21 [selumetinib]",
    "RESULT TYPE": "IC50",
    "RELATION OPERATOR": ">",
    "ENDPOINT VALUE": 31.6
  }
]

----------
Target: UniProt:Q9Y5S2
Sequence (Q9Y5S2 whole entry): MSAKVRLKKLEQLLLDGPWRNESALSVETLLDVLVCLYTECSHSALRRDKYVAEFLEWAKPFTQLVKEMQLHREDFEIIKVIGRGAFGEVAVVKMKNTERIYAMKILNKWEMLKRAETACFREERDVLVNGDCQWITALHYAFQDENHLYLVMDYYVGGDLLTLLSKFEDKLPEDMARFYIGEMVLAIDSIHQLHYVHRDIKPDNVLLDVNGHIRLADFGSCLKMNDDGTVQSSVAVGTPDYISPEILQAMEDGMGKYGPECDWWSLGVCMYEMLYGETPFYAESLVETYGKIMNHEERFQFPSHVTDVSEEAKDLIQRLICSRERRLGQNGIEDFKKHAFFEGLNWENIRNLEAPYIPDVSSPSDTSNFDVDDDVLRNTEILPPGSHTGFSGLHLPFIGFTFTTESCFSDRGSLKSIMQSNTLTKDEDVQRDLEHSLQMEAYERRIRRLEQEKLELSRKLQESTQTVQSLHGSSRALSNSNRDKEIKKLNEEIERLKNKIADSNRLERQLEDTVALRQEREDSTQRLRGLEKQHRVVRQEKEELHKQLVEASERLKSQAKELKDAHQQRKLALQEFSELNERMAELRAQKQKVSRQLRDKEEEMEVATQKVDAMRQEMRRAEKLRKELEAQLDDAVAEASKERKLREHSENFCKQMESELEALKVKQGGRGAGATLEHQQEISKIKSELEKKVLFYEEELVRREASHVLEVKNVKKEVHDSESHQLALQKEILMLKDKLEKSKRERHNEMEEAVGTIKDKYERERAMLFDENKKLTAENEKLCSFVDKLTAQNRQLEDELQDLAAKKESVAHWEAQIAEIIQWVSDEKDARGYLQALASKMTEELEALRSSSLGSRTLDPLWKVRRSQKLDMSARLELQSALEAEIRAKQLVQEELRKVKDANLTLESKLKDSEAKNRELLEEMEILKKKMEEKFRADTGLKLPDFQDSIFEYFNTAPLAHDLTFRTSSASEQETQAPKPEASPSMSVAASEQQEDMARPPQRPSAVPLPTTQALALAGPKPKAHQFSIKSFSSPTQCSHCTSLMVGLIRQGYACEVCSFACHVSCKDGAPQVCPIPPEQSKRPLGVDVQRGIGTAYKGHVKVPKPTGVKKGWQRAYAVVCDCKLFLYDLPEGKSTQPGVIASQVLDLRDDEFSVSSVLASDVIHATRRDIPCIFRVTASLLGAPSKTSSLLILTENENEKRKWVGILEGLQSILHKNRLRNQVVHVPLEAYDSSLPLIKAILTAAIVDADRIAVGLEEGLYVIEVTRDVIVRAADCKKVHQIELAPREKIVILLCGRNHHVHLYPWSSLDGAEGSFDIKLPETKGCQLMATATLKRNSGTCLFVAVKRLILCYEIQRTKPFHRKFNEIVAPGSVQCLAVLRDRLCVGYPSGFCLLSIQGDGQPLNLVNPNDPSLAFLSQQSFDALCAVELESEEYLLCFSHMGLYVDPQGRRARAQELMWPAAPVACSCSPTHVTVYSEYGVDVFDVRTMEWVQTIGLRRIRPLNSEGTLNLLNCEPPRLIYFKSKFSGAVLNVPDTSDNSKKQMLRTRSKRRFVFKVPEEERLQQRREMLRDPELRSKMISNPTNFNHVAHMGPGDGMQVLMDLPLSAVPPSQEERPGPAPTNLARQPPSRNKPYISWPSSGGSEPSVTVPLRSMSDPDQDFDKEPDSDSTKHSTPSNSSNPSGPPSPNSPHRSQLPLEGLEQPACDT
Experiment: Kinase panel profiling at 1 µmol/L (MSA or IMAP), percentage inhibition
Format: biochemical
Conditions: MRCKβ; 1 µmol/L single concentration; read-out: %-inhibition, MRCKβ
Parameter inhibition at 1 µM: see the listing below.

[
  {
    "MOL": "C=CC(=O)N1CCC([C@@H]2CCNc3c(C(N)=O)c(-c4ccc(Oc5ccccc5)cc4)nn32)CC1",
    "inhibition at 1 µM [%]": -1.23
  },
  {
    "MOL": "CCc1nc(C(N)=O)c(Nc2ccc(N3CCC(N4CCN(C)CC4)CC3)c(OC)c2)nc1NC1CCOCC1",
    "inhibition at 1 µM [%]": 47
  },
  {
    "MOL": "COC(=O)N[C@@H](C)CNc1nccc(-c2cn(C(C)C)nc2-c2cc(Cl)cc(NS(C)(=O)=O)c2F)n1",
    "inhibition at 1 µM [%]": 1.73
  },
  {
    "MOL": "CO[C@]1(C(=O)N[C@@H](C)c2ccc(-n3cc(F)cn3)nc2)CC[C@H](c2nc(C)cc(Nc3cc(C)[nH]n3)n2)CC1",
    "inhibition at 1 µM [%]": 1.9
  },
  {
    "MOL": "Cn1cnc2c(F)c(Nc3ccc(Br)cc3Cl)c(C(=O)NOCCO)cc21",
    "inhibition at 1 µM [%]": 0.656
  },
  {
    "MOL": "CN1CCN(c2ccc(C(=O)Nc3n[nH]c4ccc(Cc5cc(F)cc(F)c5)cc34)c(NC3CCOCC3)c2)CC1",
    "inhibition at 1 µM [%]": -7
  },
  {
    "MOL": "CCN1CCN(c2ccc(Nc3cc(N(C)C(=O)Nc4c(Cl)c(OC)cc(OC)c4Cl)ncn3)cc2)CC1",
    "inhibition at 1 µM [%]": -0.837
  },
  {
    "MOL": "C[C@H]1Oc2cc(cnc2N)-c2c(nn(C)c2C#N)CN(C)C(=O)c2ccc(F)cc21",
    "inhibition at 1 µM [%]": 2.78
  },
  {
    "MOL": "O=C(Nc1cnn2ccc(N3CCC[C@@H]3c3cc(F)ccc3F)nc12)N1CC[C@H](O)C1",
    "inhibition at 1 µM [%]": -2.21
  },
  {
    "MOL": "COc1cc2ncnc(Nc3ccc(F)c(Cl)c3)c2cc1NC(=O)/C=C/CN1CCCCC1",
    "inhibition at 1 µM [%]": 8
  },
  {
    "MOL": "Cn1cnc2c(F)c(Nc3ccc(Br)cc3F)c(C(=O)NOCCO)cc21",
    "inhibition at 1 µM [%]": 1.58
  },
  {
    "MOL": "Cc1nc(NC(=O)N2CCC[C@H]2C(N)=O)sc1-c1ccnc(C(C)(C)C(F)(F)F)c1",
    "inhibition at 1 µM [%]": -7
  },
  {
    "MOL": "CCN1C(=O)N(c2c(F)c(OC)cc(OC)c2F)Cc2cnc3[nH]c(CN4CCOCC4)cc3c21",
    "inhibition at 1 µM [%]": -4.4
  },
  {
    "MOL": "Cc1cc(Nc2ncnc3ccc(NC4=NC(C)(C)CO4)cc23)ccc1Oc1ccn2ncnc2c1",
    "inhibition at 1 µM [%]": 2
  },
  {
    "MOL": "Cn1cc(-c2cc3c(N4CCN(c5ncc([C@@](C)(N)c6ccc(F)cc6)cn5)CC4)ncnn3c2)cn1",
    "inhibition at 1 µM [%]": 12
  },
  {
    "MOL": "C[C@H](Nc1ncnc2nc[nH]c12)c1cc2cccc(Cl)c2c(=O)n1-c1ccccc1",
    "inhibition at 1 µM [%]": -7
  }
]
